Listed below: pIC50 values for each entry.
test_target: Endothelial PAS domain-containing protein 1 (Homo sapiens) (UniProt Q99814)
experimental_details: HIF-2a and HIF-1a reporter inhibition panel, dose response, selectivity assay for HIF-2a inhibitor project, cell-based, luminescence (AID 651581)
assay_setup: HIF-2a, run 2
To interpret pIC50, take it as minus log10 of a concentration measured in moles per litre.

- structure_as_smiles: "O=C(O)c1cccc(COc2ccccc2Cl)c1"
  pIC50: 5.58
- structure_as_smiles: "Cc1csc(NC(=O)c2cn3ccccc3n2)n1"
  pIC50: 5.08
- structure_as_smiles: "Cc1cc(C)c(C)c(S(=O)(=O)ON2C(=O)c3ccccc3C2=O)c1C"
  pIC50: 5.07
- structure_as_smiles: "CS(=O)(=O)c1ccc(-c2cn3cc(C(=O)O)ccc3n2)cc1"
  pIC50: 4.33

Tell me pIC50 reported for O=C(Nc1ccc(N2CCOCC2)cc1)c1cnccn1
5.03

Tell me pIC50 reported for CC(=O)Nc1ccc(Oc2sc(C(=O)c3ccccc3)c(N)c2C#N)cc1
4.96

Tell me pIC50 reported for O=C(Nc1cc(S(=O)(=O)N2CCOCC2)ccc1Cl)c1cc([N+](=O)[O-])ccc1Cl
4.86

Tell me pIC50 reported for COc1cc(OC)cc(-c2nnc(Nc3nc4c(F)cccc4s3)o2)c1
5.66

###

test_target: Endothelial PAS domain-containing protein 1 (Homo sapiens)
experimental_details: HIF-2a and HIF-1a reporter inhibition panel, dose response, selectivity assay for HIF-2a inhibitor project, cell-based, luminescence (AID 651581)
assay_setup: HIF-2a PANC, run 1
assay_readout: IC50 (µM)
Give just the numeric value; µM need not be written.

Tell me IC50 reported for O=C(Nc1ccc(NC(=O)c2cccs2)cc1)c1ccc2c(c1)OCCO2
2.06

Tell me IC50 reported for C(=NNc1ccc2ccccc2n1)c1ccccn1
44.8

Tell me IC50 reported for CCOC(=O)C1CCN(Cc2cc(=O)oc3c(C)c(C)ccc23)CC1
19.7

Tell me IC50 reported for COc1ccc(/C=C2\SC(=O)N(CCNC(=O)Cn3[nH]c(=O)c4ccccc4c3=O)C2=O)cc1
8.52

Tell me IC50 reported for CCOc1ccc(-c2cc(CCCC(=O)Nc3cc(OC)ccc3OC)no2)cc1
0.529

Tell me IC50 reported for COc1cccc(NC(=O)c2nc(S(C)(=O)=O)ncc2Cl)c1
32.4

Tell me IC50 reported for N#C/C(=C\c1ccccc1)C(=O)N(c1ccccn1)C1CCCCC1
98.1

###

test_target: Endothelial PAS domain-containing protein 1 (Homo sapiens)
experimental_details: HIF-2a and HIF-1a reporter inhibition panel, dose response, selectivity assay for HIF-2a inhibitor project, cell-based, luminescence (AID 651581)
assay_setup: HIF-2a, run 2
assay_readout: IC50

- compound: "O=C1C=C(c2ccccc2)C(=O)N1Nc1ccccc1"
  test_target: "Endothelial PAS domain-containing protein 1 (Homo sapiens)"
  test_result: "10.6 µM"
- compound: "Cc1ccc(S(=O)(=O)c2ncccc2[N+](=O)[O-])cc1"
  test_target: "Endothelial PAS domain-containing protein 1 (Homo sapiens)"
  test_result: "9.38 µM"
- compound: "Cc1csc(NC(=O)CCc2c(C)nc3cc(-c4ccc(Cl)cc4)nn3c2C)n1"
  test_target: "Endothelial PAS domain-containing protein 1 (Homo sapiens)"
  test_result: "0.344 µM"
- compound: "Cc1cc(C)cc(C(=O)NC(=S)Nc2ccc(-c3cc4ccccc4oc3=O)cc2)c1"
  test_target: "Endothelial PAS domain-containing protein 1 (Homo sapiens)"
  test_result: "> 99 µM"
- compound: "Cc1ccc(-n2nc3ccc(N)cc3n2)c(C)c1"
  test_target: "Endothelial PAS domain-containing protein 1 (Homo sapiens)"
  test_result: "0.448 µM"

Tell me IC50 reported for O=C(Nc1ccc(Cl)cc1Cl)c1cccc(N2C(=O)C=CC2=O)c1
8.42 µM

Tell me IC50 reported for CCS(=O)(=O)c1ncc(Cl)c(C(=O)Nc2ccc(C)cc2)n1
9.79 µM
